assay: reversal of MRP1-mediated doxorubicin resistance, pilot screen, H69AR cells, doxorubicin co-treatment (AID 601); settings: H69AR cells + 2 uM doxorubicin, CellTiter-Glo, 72 h; measured here: viability with 2 uM doxorubicin; at 10 µM; stronger effect = lower value

- compound: "COc1ccc(CCN2C(=O)CCC2(C)C(=O)NCc2cccnc2)cc1OC (stereo unspecified)"
  viability, %: 88
- compound: "O=C(NCc1ccc(F)cc1)c1cc(-c2ccco2)on1"
  viability, %: 101
- compound: "O=C(CSc1ncn[nH]1)NC1CC2CCC1C2 (stereo unspecified)"
  viability, %: 120
- compound: "COCCNC(=O)NC(=O)COC(=O)Cc1ccc2c(c1)OCCO2"
  viability, %: 92.6
- compound: "O=C(CSc1nnc(-c2ccc(Br)cc2)n1C1CCCCC1)N1CCCC1"
  viability, %: 87.1
- compound: "CCS(=O)(=O)c1ccc(S(=O)(=O)CC)s1"
  viability, %: 104
- compound: "CN(CC(=O)N1CCN(C2CCCCC2)CC1)S(=O)(=O)c1cccc2nsnc12"
  viability, %: 91.5
- compound: "Cc1cc(N2CCN(C)CC2)nc(N2CCOCC2)n1"
  viability, %: 87.4
- compound: "Cc1ccc(C(O)c2nc3ccccc3n2C(C)C)cc1 (stereo unspecified)"
  viability, %: 87.8
- compound: "Cc1ccc2[nH]c(=O)c(CN(CCCO)S(=O)(=O)c3c(C)ccc4nsnc34)cc2c1"
  viability, %: 92.8
- compound: "COc1cccc(-c2nc(-c3ccc(NC(=O)Cc4ccccc4OC)cc3)no2)c1"
  viability, %: 77.8
